# Target Desc: Clostridioides difficile toxin A (Clostridioides difficile, strain not …, UniProt P16154)
# Assay Procedure: SPR
# Run Parameters: both partners purified
Can you tell me kon for the items I'm about to list?
Give bare numbers, in M⁻¹ s⁻¹.

See these solved cases before continuing.
1) A26.8 VHH with engineered Cys6-Cys119 disulfide linkage (VHH) VHH: QVKLECSGGGLVQAGGSLRLSCAASERTFSRYPVAWFRQAPGAEREFVAVISSTGTSTYYADSVKGRFTISRDNAKVTVYLQMNNLKREDTAVYFCAVNSQRTRLQDPNEYDYWCQGTQVTVSS; 5.5e+06
2) A26.8 VHH with engineered Cys22-Cys88 disulfide linkage (VHH) VHH: QVKLEESGGGLVQAGGSLRLCCAASERTFSRYPVAWFRQAPGAEREFVAVISSTGTSTYYADSVKGRFTISRDNAKVTVCLQMNNLKREDTAVYFCAVNSQRTRLQDPNEYDYWGQGTQVTVSS; 1.5e+06

Input line: Quick check: kon of A26.8 VHH with engineered Cys24-Cys86 disulfide linkage (VHH) VHH: QVKLEESGGGLVQAGGSLRLSCCASERTFSRYPVAWFRQAPGAEREFVAVISSTGTSTYYADSVKGRFTISRDNAKVCVYLQMNNLKREDTAVYFCAVNSQRTRLQDPNEYDYWGQGTQVTVSS ?
Output line: 621000

Source of measurements: paper PMC10641266
